Assay: Serum concentration and pharmacokinetics of SCI after oral gavage in Wistar rats
Type: in vivo, Wistar rat
Conditions: male, Wistar, rat, serum, po, 10 mg/kg, Mean of rats 4–6 ± SEM; serum; oral 10 mg/kg; read-out: K (elimination rate constant) (converted)

record-smiles	k el (s⁻¹)
O[C@H]1[C@H](O)[C@@H](O)[C@H](O)[C@@H](O)[C@@H]1O	0.000126

* * *

Experiment: Serum concentration and pharmacokinetics of SCI after oral gavage in Wistar rats
Format: in vivo, Wistar rat
Conditions: male, Wistar, rat, serum, po, 10 mg/kg, Rat No 2; serum; oral 10 mg/kg; read-out: T0.5e (elimination half-life) (converted)
measured-endpoint: half-life (h)

record-smiles	unit-abbrev	quantitative-result
O[C@H]1[C@H](O)[C@@H](O)[C@H](O)[C@@H](O)[C@@H]1O	h	50

* * *

Experiment: Serum concentration and pharmacokinetics of SCI after oral gavage in Wistar rats
Assay type: in vivo, Wistar rat
Conditions: male, Wistar, rat, serum, po, 10 mg/kg, Mean of rats 1–3 ± SEM; oral 10 mg/kg
measured-endpoint: Cmax

record-smiles	measured-endpoint	result
O[C@H]1[C@H](O)[C@@H](O)[C@H](O)[C@@H](O)[C@@H]1O	Cmax	6.73 µg/mL

* * *

Experiment: Serum concentration and pharmacokinetics of SCI after oral gavage in Wistar rats
Assay type: in vivo, Wistar rat
Conditions: male, Wistar, rat, serum, po, 10 mg/kg, Mean of rats 1–3 ± SEM; oral 10 mg/kg

compound	AUC(0-t) [ng·h/mL]
O[C@H]1[C@H](O)[C@@H](O)[C@H](O)[C@@H](O)[C@@H]1O [SCI, scyllo-inositol]	36400

* * *

Experiment: Serum concentration and pharmacokinetics of SCI after oral gavage in Wistar rats
Type: in vivo, Wistar rat
Details: male, Wistar, rat, serum, po, 10 mg/kg, Rat No 3; serum; oral 10 mg/kg; read-out: MRT (mean residence time)
measured-endpoint: MRT (h)

record-smiles	unit-abbrev	quantitative-result
O[C@H]1[C@H](O)[C@@H](O)[C@H](O)[C@@H](O)[C@@H]1O	h	36.3

* * *

Test: Serum concentration and pharmacokinetics of SCI after oral gavage in Wistar rats
Assay type: in vivo, Wistar rat
Details: male, Wistar, rat, serum, po, 10 mg/kg, Rat No 3; oral 10 mg/kg
measured-endpoint: Cmax (ng/mL)

record-smiles	unit-abbrev	quantitative-result
O[C@H]1[C@H](O)[C@@H](O)[C@H](O)[C@@H](O)[C@@H]1O	ng/mL	6800

* * *

Assay: Serum concentration and pharmacokinetics of SCI after oral gavage in Wistar rats
Format: in vivo, Wistar rat
Details: male, Wistar, rat, serum, po, 10 mg/kg, Rat No 3; oral 10 mg/kg

molecule	AUC(0-t) (ng·h/mL)
O[C@H]1[C@H](O)[C@@H](O)[C@H](O)[C@@H](O)[C@@H]1O [SCI, scyllo-inositol]	29700

* * *

Test: Serum concentration and pharmacokinetics of SCI after oral gavage in Wistar rats
Assay type: in vivo, Wistar rat
Details: male, Wistar, rat, serum, po, 10 mg/kg, Rat No 1; oral 10 mg/kg

record-smiles	Tmax (h)
O[C@H]1[C@H](O)[C@@H](O)[C@H](O)[C@@H](O)[C@@H]1O	1.5

* * *

Experiment: Serum concentration and pharmacokinetics of SCI after oral gavage in Wistar rats
Format: in vivo, Wistar rat
Conditions: male, Wistar, rat, serum, po, 10 mg/kg, Rat No 3; serum; oral 10 mg/kg; read-out: T0.5e (elimination half-life) (converted)
measured-endpoint: half-life (min)

compound	quantitative-result
O[C@H]1[C@H](O)[C@@H](O)[C@H](O)[C@@H](O)[C@@H]1O [SCI, scyllo-inositol]	1510
